- measurement-protocol: qHTS assay for small molecule activators of the human pregnane X receptor (PXR) signaling pathway (AID 720659); note: 0% is about no effect
- measurement-setup: DPX-2 HepG2 CYP3A4-luciferase, 24 h; series mostly up to 92.3 µM
Calls of active or inactive are those of the source. The rule behind the calls is not given here.
value-type: outcome

The recorded outcome for entry c1cc(OCC2CO2)cc(OCC2CO2)c1 (stereo not given) equals inactive

The compound listed as Cc1ccc(S(=O)(=O)Oc2ccc(N=Nc3ccc(-c4ccc(N=Nc5c(O)ccc6cc(S(=O)(=O)O)cc(S(=O)(=O)O)c56)c(C)c4)cc3C)cc2)cc1 has a reported outcome of inactive

Entry under test: CNc1ccc(O)cc1 . Its outcome was inactive

The value of outcome measured for the compound CN1[C@H]2CC(OC(=O)[C@H](CO)c3ccccc3)C[C@H]1[C@H]1O[C@H]12 (stereo not given in full) turned out to be inactive

# compound c1ccc2c(c1)ccc1cc3c(ccc4ccccc43)cc12 ; its outcome = inactive

Measured outcome, ClC1=C(Cl)C(Cl)(Cl)C(Cl)=C1Cl : inactive

Lab note: C=C(C)c1ccccc1 gave outcome of inactive

Form field outcome, entry O=C(OCC(COC(=O)c1ccccc1)(COC(=O)c1ccccc1)COC(=O)c1ccccc1)c1ccccc1 : inactive

The reported value for Cc1cccc(O)c1C in terms of outcome is inactive

Then this compound:
Form: compound = O=Cc1ccc(Cl)c(Cl)c1 ; outcome = inactive

###

- measurement-protocol: Stat Signaling Pathway (AID 446);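 note: ME-180 cervical cancer cells given 40 pM IL-6 alongside compound; SIE-controlled beta-lactamase reporter measured as 460/530 nm FRET emission ratio; % is set by controls: 0 for no effect and ±100 for the full control effect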
- measurement-setup: ME-180 (cervical carcinoma) SIE beta-lactamase reporter, IL-6 stimulated, 5 h; at 17.2 µM (top of the series) unless noted
Results filed as inconclusive are left out. The source made the active and inactive calls. The call rests on the fitted dose curve; in most records, active means well fitted curve in either direction with a large enough effect (not every such curve was filed as active); inconclusive means small, poorly fitted or top-dose-only effect, or another doubt; inactive means flat fitted curve, though single readings scatter.
value-type: activity, negative = inhibition

Check out these entries, answers already filled in.
CCc1nc(NC2CCCCC2)c(C#N)c2c1COC(C)(C)C2 yielded activity, negative = inhibition of 7.37% (inactive)

Per the records, this compound ( OCCNc1nc(-c2ccccc2)c2ccccc2n1 ) has activity, negative = inhibition equal to -4.38% (inactive)

Field activity, negative = inhibition (entry O=c1c2c3c(sc2n2cnnc2n1Cc1ccccc1)CN(Cc1ccccc1)CC3 ) reads -0.303% (inactive)

What the record says about Cc1cc(C)nc(NC2=NCC(=O)N2c2ccccc2)n1 : activity, negative = inhibition is 9% (inactive)

Value of activity, negative = inhibition reported for the compound O=C(O)CCc1cc(I)c(Oc2ccc(O)c(I)c2)c(I)c1 is -5.45% (inactive)

Short answer for COc1ccccc1-c1nn2c(-c3ccco3)nnc2s1 : activity, negative = inhibition was -5.72% (inactive)

Documented activity, negative = inhibition of O=c1[nH]c2sc3c(c2c(=O)n1Cc1ccccc1)CCC3 : -5.31% (inactive)

activity, negative = inhibition reported for this compound COC(=O)CSc1nc2c(c(=O)n(C)c(=O)n2C)n1CCC(C)C : 6.93% (inactive)

Sample COc1cccc(-c2nc(N3CC(C)CC(C)C3)c3ccccc3n2)c1O (stereo not given) ; activity, negative = inhibition observed: 8.47% (inactive)

Field activity, negative = inhibition (entry CCc1cc2c(=O)c(-c3cscn3)coc2cc1O ) reads -14.6% (inactive)

Others:
Lookup result for O=c1[nH]cnc2c1cnn2Cc1ccccc1 ; measured activity, negative = inhibition: 6.19% (inactive)

Record summary for CCN(CC)CCN1C(=O)C(O)=C(C(=O)c2cc3ccccc3o2)C1c1cccnc1 (stereo not given) : reported activity, negative = inhibition = 2.38% (inactive)

###

- target: Cytochrome P450 2C19 (Homo sapiens)
- measurement-protocol: qHTS Assay for Inhibitors and Substrates of Cytochrome P450 2C19 (AID 899); note: nearly all actives have a fitted effect of over 60% in size
- measurement-setup: recombinant CYP2C19, luciferin-H EGE luminescence; series mostly up to 57.1 µM
Inconclusive results are not listed. Active and inactive are the calls of the source. The call rests on the fitted dose curve; in most records, active means well fitted inhibition curve with a large enough effect; inconclusive means small, poorly fitted or top-dose-only effect; inactive means no such curve, though single readings can be large or run the other way.
Choose one outcome from this list and give only that: active, inactive

Query: Please share the test call associated with O=C(O)[C@H]1C[C@@H](CP(=O)(O)O)CCN1 .
Reply: active

Query: Could you check what this test reported for CC(C)C[C@@H](CC(=O)N[C@H](CC(=O)N[C@@H]1CCNC[C@H]1C(=O)N[C@H](CC(=O)N[C@@H](CCC(=O)O)CC(=O)O)Cc1ccccc1)C(C)C)NC(=O)[C@@H]1CNCC[C@H]1N ?
Reply: inactive

Query: Which result was noted for this compound in the test: CC(C)C[C@@H](CC(=O)N[C@@H](CCC(=O)O)CC(=O)O)NC(=O)[C@@H]1CNCC[C@H]1NC(=O)C[C@@H](NC(=O)C[C@H](Cc1c[nH]c2ccccc12)NC(=O)[C@@H]1CCCC[C@H]1N)C(C)C
Reply: inactive

Query: Hi team, can someone confirm the assay call for O=c1cc(-c2ccccc2O)oc2cc(O)cc(O)c12 ?
Reply: active

Next:
Query: Lab log entry: NCCC[C@@H](CC(=O)N[C@@H]1CCCC[C@H]1C(=O)N[C@H](CC(=O)N[C@@H](CCC(=O)O)CC(=O)O)Cc1c[nH]c2ccccc12)NC(=O)C[C@H](Cc1ccccc1)NC(=O)[C@@H]1CNCC[C@H]1N — outcome as called in the assay?
Reply: inactive

Query: Call for entry Cc1c(C(=O)O)c(O)cc2c1C(=O)c1c(O)c([C@@H]3O[C@H](CO)[C@@H](O)[C@H](O)[C@@H]3O)c(O)c(O)c1C2=O :
Reply: inactive

Query: Recorded test call requested for CC(C)C[C@@H](CC(=O)N[C@@H](CCCN)CC(=O)N[C@@H]1CCNC[C@H]1C(=O)N[C@H](CC(=O)N[C@@H](CCC(=O)O)CC(=O)O)CC(C)C)NC(=O)[C@@H]1CCCC[C@H]1N
Reply: active

Query: For CC(C)[C@@H](CC(=O)N[C@@H]1CCCC[C@H]1C(=O)N[C@H](CC(=O)N[C@@H](CCC(=O)O)CC(=O)O)Cc1c[nH]c2ccccc12)NC(=O)C[C@H](Cc1c[nH]c2ccccc12)NC(=O)[C@@H]1CCCC[C@H]1N , what call appears in the results of this test?
Reply: inactive

Query: Field: outcome | Entry: CC(C)C[C@@H](CC(=O)N[C@H](CC(=O)N[C@@H]1CCCC[C@H]1C(=O)N[C@H](CC(=O)N[C@@H](CCC(=O)O)CC(=O)O)Cc1c[nH]c2ccccc12)C(C)C)NC(=O)[C@@H]1CCCC[C@H]1N
Reply: inactive

###

- measurement-protocol: Cell Viability - Renal Proximal Tubule (AID 545);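 note: cells exposed to compound for 40 hours; nearly all actives have a fitted effect of over 40% in size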
- measurement-setup: renal proximal tubule cells viability, primary cells of rat origin
Records with an inconclusive call do not appear. The source made the active and inactive calls. The call rests on the fitted dose curve; in most records, active means well fitted cell-killing curve with a large enough effect; inconclusive means small, poorly fitted or top-dose-only effect; inactive means flat fitted curve, though single readings scatter.
Tick one outcome: 1.0 = active, 0.0 = inactive

# example entries with known answers
Query: What did this assay record as the result for ClC1=C(Cl)C(Cl)(Cl)C(Cl)=C1Cl ?
Reply: 0.0

Query: GET /call?item= O=C1OC2(c3cc(Br)c(O)c(Br)c3Oc3c2cc(Br)c(O)c3Br)c2c(Cl)c(Cl)c(Cl)c(Cl)c21 returns the recorded outcome of this test.
Reply: 0.0

Query: Hey, what did the test say about C=CC(=O)OCC(CO)(COC(=O)C=C)COC(=O)C=C ?
Reply: 1.0

Query: Dear colleague, could you share the recorded outcome for CN(C)c1ccc(C2(c3ccc(N(C)C)cc3)OC(=O)c3cc(N(C)C)ccc32)cc1 when you have a moment?
Reply: 0.0

Query: In this assay, the call recorded for Cc1cccc(O)c1C was what?
Reply: 0.0

Query: Identify the outcome logged in this assay for the molecule shown: O=C(OCC(COC(=O)c1ccccc1)(COC(=O)c1ccccc1)COC(=O)c1ccccc1)c1ccccc1
Reply: 0.0

Query: What classification did c1ccc2c(c1)-c1cccc3c1c-2cc1ccccc13 end up with in this test?
Reply: 0.0

Query: Hi, do you know how O=Cc1ccc(Cl)c(Cl)c1 came out in this test?
Reply: 0.0

Turning now to a further record.
Query: Answer briefly: the call reported for c1cc(OCC2CO2)cc(OCC2CO2)c1 (configuration not stated) in this assay.
Reply: 1.0

###

- System: ECU
- measurement-protocol: qHTS profiling for inhibitors of Plasmodium falciparum proliferation (AID 504749); note: nearly all actives have a fitted effect of over 60% in size
- measurement-setup: P. falciparum in erythrocytes, SYBR Green DNA, 72 h; series mostly up to 28.7 µM
Records with an inconclusive call do not appear. Active and inactive are the calls of the source. The call rests on the fitted dose curve; in most records, active means well fitted inhibition curve with a large enough effect; inconclusive means small, poorly fitted or top-dose-only effect; inactive means flat fitted curve, though single readings scatter.
Tick one outcome: active, inactive

Some solved entries appear below for comparison.
Query: Recorded call for CC(=O)CC(c1ccccc1)C1C(=O)Oc2ccccc2C1=O (stereo not drawn) ?
Reply: inactive

Query: Check the results log: what was the call for CO/N=C(/C(=O)N[C@@H]1C(=O)N2C(C(=O)O)=C(CSc3cnns3)CS[C@H]12)c1csc(N)n1 ?
Reply: inactive

Query: Returns: the outcome recorded for CCCCN1CC(O)C(O)C(O)C1CO (stereo not drawn) in this assay.
Reply: inactive

Query: Kindly provide the recorded test outcome for the following compound: NC(=O)OC[C@@H]1[C@H](NC(=O)/C(=N/OCC(=O)O)c2csc(N)n2)C(=O)N1S(=O)(=O)O
Reply: inactive

Query: // outcome(item) with item = CCCCC(=O)O[C@]1(C(=O)CO)CCC2C3CCC4=CC(=O)CCC4(C)C3C(O)CC21C (stereo partly drawn)
Reply: inactive

Further cases:
Query: Test call for this compound, please: CCOc1ccccc1O[C@@H](c1ccccc1)[C@@H]1CNCCO1
Reply: active

Query: Any idea what this test logged for C[C@]12CCC(=O)C=C1[C@@H]1C[C@H]1[C@H]1[C@@H]3[C@@H]4C[C@H]4[C@@]4(CCC(=O)O4)[C@@]3(C)CC[C@@H]12 ?
Reply: inactive

Query: Which outcome was assigned to CO[C@H]1/C=C/O[C@@]2(C)Oc3c(C)c(O)c4c(O)c(c5c(c4c3C2=O)NC2(CCN(CC(C)C)CC2)N=5)=NC(=O)/C(C)=C\C=C\[C@H](C)[C@H](O)[C@@H](C)[C@@H](O)[C@@H](C)[C@H](OC(C)=O)[C@@H]1C in this test?
Reply: active

Query: Please share the test call associated with C[C@H]1[C@@H](OC(=O)CCC(=O)O)OC2OC3(C)CC[C@H]4[C@H](C)CC[C@@H]1[C@@]24OO3 (stereo partly drawn) .
Reply: active

Query: Given OCC1OC(O)C(O)C(O)C1O (stereo not drawn) , state the outcome it received in this test.
Reply: inactive

Query: Returns: the outcome recorded for NC[C@@H]1O[C@H](OC2[C@@H](CO)O[C@@H](OC3[C@H](O)[C@H](N)C[C@H](N)[C@H]3OC3O[C@H](CO)[C@@H](O)[C@H](O)[C@@H]3N)[C@H]2O)C(N)[C@H](O)[C@@H]1O (stereo partly drawn) in this assay.
Reply: inactive

Query: How did this test come out for CC(C)(C)C(=O)OCC(=O)C1CCC2C3CCC4=CC(=O)CCC4(C)C3CCC12C (stereo not drawn) ?
Reply: inactive

Query: Could you kindly confirm the outcome this assay logged for O=C(O)c1ccc(N[C@@H]2OC[C@@H](O)[C@@H](O)[C@@H]2O)cc1 ?
Reply: inactive

Query: Please share the test call associated with CC1(Cn2ccnn2)[C@H](C(=O)O)N2C(=O)C[C@H]2S1(=O)=O (stereo partly drawn) .
Reply: inactive

Query: Fill in: this test's call for NC(=O)c1ncn(C2OC(CO)C(O)C2O)c1N (stereo not drawn) is ___
Reply: inactive

Query: Hey, what did the test say about Cc1onc(-c2c(F)cccc2Cl)c1C(=O)NC1C(=O)N2C1SC(C)(C)C2C(=O)O (stereo not drawn) ?
Reply: inactive

Query: Per the records of this test, what outcome belongs to O=C(O)Cc1sc(-c2ccc(Cl)cc2)nc1-c1ccccc1 ?
Reply: inactive

Query: Which result was noted for this compound in the test: Cc1ccc(Nc2ncccc2C(=O)O)cc1C
Reply: inactive

The measured values listed here are drawn from PubChem BioAssay (NCATS).
